Biological target: rParg-GSTσ (sigma class GST of P. argentipes) (Phlebotomus argentipes, UniProt A0A5A4I953)
Sequence (A0A5A4I953 1-203): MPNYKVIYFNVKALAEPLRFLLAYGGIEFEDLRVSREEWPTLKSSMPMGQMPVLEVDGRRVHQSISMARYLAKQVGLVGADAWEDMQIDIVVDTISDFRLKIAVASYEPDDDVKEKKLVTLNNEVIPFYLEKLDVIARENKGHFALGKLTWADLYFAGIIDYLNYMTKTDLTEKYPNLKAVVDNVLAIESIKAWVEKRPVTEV
TEST READOUT: IC50 (nM)

                                   compound  test_readout  data_value
0  C=C(CC)C(=O)c1ccc(OCC(=O)O)c(Cl)c1Cl [Ethacrynic acid]          IC50          50
